# Method description: in vivo
# Type: in vivo, dog
# Run parameters: male, dog, in vivo, 4.7 mg
Attribute measured: level at 5376 h (ng/mL)

INSERT INTO assay_data (substance_smiles, attribute_measured, measured_result) VALUES
  ('CCNC(=O)[C@@H]1CCCN1C(=O)[C@H](CCCN=C(N)N)NC(=O)[C@H](CC(C)C)NC(=O)[C@@H](Cc1c[nH]c2ccccc12)NC(=O)[C@H](Cc1ccc(O)cc1)NC(=O)[C@H](CO)NC(=O)[C@H](Cc1c[nH]c2ccccc12)NC(=O)[C@H](Cc1cnc[nH]1)NC(=O)[C@@H]1CCC(=O)N1', 'level at 5376 h', 0.012);

###

# Method description: in vivo
# Run parameters: male, dog, 4.7 mg
Attribute measured: level at 10584 h (pg/mL)

INSERT INTO measurements (substance_smiles, measured_result) VALUES
  ('CCNC(=O)[C@@H]1CCCN1C(=O)[C@H](CCCN=C(N)N)NC(=O)[C@H](CC(C)C)NC(=O)[C@@H](Cc1c[nH]c2ccccc12)NC(=O)[C@H](Cc1ccc(O)cc1)NC(=O)[C@H](CO)NC(=O)[C@H](Cc1c[nH]c2ccccc12)NC(=O)[C@H](Cc1cnc[nH]1)NC(=O)[C@@H]1CCC(=O)N1', 2);
